Origin of the recorded values: patent US20250152585A1

# MEASURED ON: full length N-terminally FLAG-tagged PARP1 (Homo sapiens)
# Sequence (P09874 whole entry): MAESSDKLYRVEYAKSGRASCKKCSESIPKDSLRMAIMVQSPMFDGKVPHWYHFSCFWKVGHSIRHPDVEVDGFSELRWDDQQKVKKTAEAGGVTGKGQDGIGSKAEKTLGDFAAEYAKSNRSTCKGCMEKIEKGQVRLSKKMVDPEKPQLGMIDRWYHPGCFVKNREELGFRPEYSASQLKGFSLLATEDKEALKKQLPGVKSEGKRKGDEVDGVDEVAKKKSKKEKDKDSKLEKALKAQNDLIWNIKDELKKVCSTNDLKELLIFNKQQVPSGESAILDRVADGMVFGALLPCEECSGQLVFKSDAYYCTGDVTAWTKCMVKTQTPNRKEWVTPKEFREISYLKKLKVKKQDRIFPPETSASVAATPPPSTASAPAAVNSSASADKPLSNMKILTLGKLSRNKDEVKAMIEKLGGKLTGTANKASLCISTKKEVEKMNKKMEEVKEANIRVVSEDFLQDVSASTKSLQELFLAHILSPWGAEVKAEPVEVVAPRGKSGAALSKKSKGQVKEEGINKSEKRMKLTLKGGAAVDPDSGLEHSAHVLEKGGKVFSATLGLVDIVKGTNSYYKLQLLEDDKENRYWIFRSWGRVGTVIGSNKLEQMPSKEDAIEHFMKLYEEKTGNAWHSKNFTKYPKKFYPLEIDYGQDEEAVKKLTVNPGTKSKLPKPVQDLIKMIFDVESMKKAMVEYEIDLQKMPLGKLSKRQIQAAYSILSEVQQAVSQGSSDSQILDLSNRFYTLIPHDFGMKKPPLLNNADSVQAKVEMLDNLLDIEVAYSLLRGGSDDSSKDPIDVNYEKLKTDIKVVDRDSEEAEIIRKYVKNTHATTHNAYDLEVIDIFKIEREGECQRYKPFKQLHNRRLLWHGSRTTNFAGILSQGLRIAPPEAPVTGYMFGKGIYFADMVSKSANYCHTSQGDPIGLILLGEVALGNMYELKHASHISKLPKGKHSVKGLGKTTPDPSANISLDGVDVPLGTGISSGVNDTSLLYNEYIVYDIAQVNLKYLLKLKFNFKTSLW
# METHOD NOTES: PARP1 probe displacement HTRF assay
# CONDITIONS: read-out: PARP1 HTRF; binned Kd, probe displacement HTRF
pKd: −log10 of the molar value.
REPORTED PROPERTY: pKd

See these solved cases before continuing.
CCc1ccc(C2CCN(C3CCN(c4ccc(C(=O)NCCF)nc4F)CC3)C2)[nH]c1=O (single isomer, unassigned) [Compound 322a] : > 8.00
CNC(=O)c1ccc(N2CCC(N3CCC(c4cnc(CC(F)(F)F)c(=O)[nH]4)C3)CC2)cn1 (single isomer, unassigned) [Compound 287b] : 5.00 to 6.00
CS(=O)(=O)Nc1ccc(N2CCC(N3CCC(c4nc5ccccc5c(=O)[nH]4)C3)CC2)cn1 (single isomer, unassigned) [Compound 291b] : 6.00 to 7.00
CCc1ccc(C2CCN(C3CCN(c4cnc(C(=O)NC)cc4C(F)(F)F)CC3)C2)[nH]c1=O (single isomer, unassigned) [Compound 298a] : 5.00 to 6.00
CNC(=O)c1cc(C)c(N2CCC(N3CCC(c4nc5ccccc5c(=O)[nH]4)C3)CC2)c(C)n1 (single isomer, unassigned) [Compound 224a] : 5.00 to 6.00
CNC(=O)c1ccc(N2CCC(N3CCC(c4cc5c(c(=O)[nH]4)CCCC5)C3)CC2)cn1 (racemic) [Compound 336rac] : > 8.00
CC(=O)NC(=O)c1ccc(N2CCC(N3CCC(c4cc5ccccc5c(=O)[nH]4)C3)CC2)cc1 (single isomer, unassigned) [Compound 341a] : > 8.00
CNC(=O)c1ccc(N2CCC(N3CCC(c4ccc(CCOC)c(=O)[nH]4)C3)CC2)cn1 (single isomer, unassigned) [Compound 240b] : 5.00 to 6.00
CC(=O)NC(=O)c1ccc(N2CCC(N3CCC(c4cc5ccccc5c(=O)[nH]4)C3)CC2)cc1 (single isomer, unassigned) [Compound 341b] : 7.00 to 8.00
CNC(=O)c1ccc(N2CCC(N3CCC(c4cc5ccc(F)cc5c(=O)[nH]4)C3)CC2)cc1F (single isomer, unassigned) [Compound 270b] : > 8.00

[in] Let me know recorded pKd for CNC(=O)c1ccc(N2CCC(N3CC4(c5nc6ccccc6c(=O)[nH]5)CCC3C4)CC2)cn1 (single isomer, unassigned) [Compound 245b] , thanks.
[out] 7.00 to 8.00

[in] Let me know recorded pKd for CNC(=O)c1ccc(N2CCC(N3CCCC(O)(c4nc5ccccc5c(=O)[nH]4)C3)CC2)cn1 (single isomer, unassigned) [Compound 327b] , thanks.
[out] 6.00 to 7.00
